Label key: 1 (yes) means logP under 4; 0 (no) means logP of 4 or more.

Would you please look over these solved cases?
>>> assigned_category("O=C1CCCCCCC(=O)N(Cc2ccccc2)CCN(Cc2ccccc2)C(=O)CCCCCCC(=O)N(Cc2ccccc2)CCN1Cc1ccccc1")
"0 (no)"
>>> assigned_category("CCOC(=O)CCCCCCCCCCCN(C)C(=O)CO[C@@H](C)[C@H](C)OCC(=O)N(C)CCCCCCCCCCCC(=O)OCC")
"0 (no)"
>>> assigned_category("O=C1COCC(=O)N(Cc2ccccc2)CCN(Cc2ccccc2)C(=O)COCC(=O)N(Cc2ccccc2)CCOCCN1Cc1ccccc1")
"1 (yes)"
>>> assigned_category("O=C1COCC(=O)N(Cc2ccccc2)CCN(Cc2ccccc2)C(=O)COCC(=O)N(Cc2ccccc2)CCN1Cc1ccccc1")
"1 (yes)"
>>> assigned_category("O=C1COCC(=O)N(Cc2ccccc2)CCN(c2ccccc2)CCN(Cc2ccccc2)C(=O)COCC(=O)N(Cc2ccccc2)CCN1Cc1ccccc1")
"0 (no)"

Please check: logP for `O=C(COCC(=O)N(C1CCCCC1)C1CCCCC1)N(C1CCCCC1)C1CCCCC1` , strictly under 4 or not?
0 (no)

Here's an entry: `O=C1COCC(=O)N(Cc2ccccc2)CCOCCN(Cc2ccccc2)C(=O)COCC(=O)N(Cc2ccccc2)CCOCCN1Cc1ccccc1` . Is its logP below 4?
1 (yes)
